# Test system: Sprague Dawley rats
# assay: Palatability (no-choice) trial, peanut butter bait
# Format: in vivo, rat (Sprague Dawley)
# assayConditions: po, 1% w/w toxicant in peanut butter bait, n = 6, 3 male and 3 female rats, Table 11, read-out: No of deaths (converted)
The entries below come with measured mortality at 1 % values attached.

NCc1ccc(C(=O)OCCN2C(=O)C3C4C=C(C(O)(c5ccccc5)c5ccccn5)C(C4=C(c4ccccc4)c4ccccn4)C3C2=O)cc1.O=C(O)C(F)(F)F (stereo not drawn) [Compound 342, trifluoroacetate] | 66.7%
Cc1ccc(CC(=O)OCN2C(=O)C3C4C=C(C(O)(c5ccccc5)c5ccccn5)C(C4=C(c4ccccc4)c4ccccn4)C3C2=O)cc1 (stereo not drawn) | 100%
O=C1NC(=O)C2C3C(C(O)(c4ccccc4)c4ccccn4)=CC(C3=C(c3ccccc3)c3ccccn3)C12 (stereo not drawn) [endo-NRB, reference compound] | 66.7%
CCc1ccc(C=CC(=O)OCCN2C(=O)C3C4C=C(C(O)(c5ccccc5)c5ccccn5)C(C4=C(c4ccccc4)c4ccccn4)C3C2=O)cc1 (stereo not drawn) | 100%

Qu. So what does the record say about mortality at 1 % for O=C(Cc1ccccc1)OCN1C(=O)C2C3C=C(C(O)(c4ccccc4)c4ccccn4)C(C3=C(c3ccccc3)c3ccccn3)C2C1=O (stereo not drawn) ?
Ans. 83.3%

Qu. Repeat for the following compound: CCCCCCCC(=O)OCN1C(=O)C2C3C=C(C(O)(c4ccccc4)c4ccccn4)C(C3=C(c3ccccc3)c3ccccn3)C2C1=O (stereo not drawn)
Ans. 100%

====

# assay: Rat serum assay (release of NRB or NRB analogue)
# Type: in vitro ADME
# assayConditions: 80% rat serum, 37° C., 3 h, n = 3
% NRB released, Rat Serum overview

O=C(CCCCCCCCCCC(=O)OCN1C(=O)C2C3C=C(C(O)(c4ccccc4)c4ccccn4)C(C3=C(c3ccccc3)c3ccccn3)C2C1=O)OCN1C(=O)C2C3C=C(C(O)(c4ccccc4)c4ccccn4)C(C3=C(c3ccccc3)c3ccccn3)C2C1=O (stereo not drawn) [Compound 25] | <5%

Qu. For the molecule shown here, O=C(CCCCCCCCC(=O)OCCN1C(=O)C2C3C=C(C(O)(c4ccccc4)c4ccccn4)C(C3=C(c3ccccc3)c3ccccn3)C2C1=O)OCCN1C(=O)C2C3C=C(C(O)(c4ccccc4)c4ccccn4)C(C3=C(c3ccccc3)c3ccccn3)C2C1=O (stereo not drawn) [Compound 141] , give the reported % NRB released, Rat Serum.
Ans. <5%

Qu. # iterate: O=C(OCN1C(=O)C2C3C=C(C(O)(c4ccccc4)c4ccccn4)C(C3=C(c3ccccc3)c3ccccn3)C2C1=O)c1ccc(C(=O)OCN2C(=O)C3C4C=C(C(O)(c5ccccc5)c5ccccn5)C(C4=C(c4ccccc4)c4ccccn4)C3C2=O)cc1 (stereo not drawn) [Compound 26]
Ans. <5%

Recorded values, source patent US9198420B2.
